For each entry below, report its pIC50 value.
target: Cyclin-dependent kinase 2/cyclin A (Homo sapiens); test: Inhibition of CDK2/cyclin A using 5-FAM-GGGPATPKKAKKL-COOH as substrate after 1 hr by IMAP assay
# pIC50 = -log10(concentration in molar units)

Q: Identify measured pIC50 corresponding to C[C@@H]1C/C=C/[C@@H](O)[C@@H](O)CC/C=C/c2cc(O)cc(O)c2C(=O)O1
Ans: 4.72

Q: Identify measured pIC50 corresponding to COc1cc(O)c2c(c1)/C=C/CC[C@H](O)[C@H](O)/C=C/C[C@H](C)OC2=O
Ans: 4.72

Q: Identify measured pIC50 corresponding to C[C@H]1C/C=C/[C@@H](O)[C@@H](O)CC/C=C/c2cc(O)cc(O)c2C(=O)O1
Ans: 4.68

---

RECORDED METRIC: pIC50
# pIC50 = -log10(concentration in molar units)

Q: Please respond with reported pIC50 (system Cyclin-dependent kinase 5 (Homo sapiens)) for C[C@H]1C/C=C/[C@@H](O)[C@@H](O)CC/C=C/c2cc(O)cc(O)c2C(=O)O1 .
Ans: 5.22

---

biological target: UniProtKB P06493
Sequence (P06493 whole entry): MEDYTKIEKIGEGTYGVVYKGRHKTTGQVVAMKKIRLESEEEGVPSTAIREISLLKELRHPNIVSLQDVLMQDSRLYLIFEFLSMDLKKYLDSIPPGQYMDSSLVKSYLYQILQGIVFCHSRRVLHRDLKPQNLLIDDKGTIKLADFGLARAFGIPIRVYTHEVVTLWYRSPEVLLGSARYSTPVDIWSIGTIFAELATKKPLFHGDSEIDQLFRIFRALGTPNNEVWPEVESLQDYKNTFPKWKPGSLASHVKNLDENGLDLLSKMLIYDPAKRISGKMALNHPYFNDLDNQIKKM
RECORDED METRIC: pIC50
# pIC50 = -log10(concentration in molar units)

Q: Identify measured pIC50 corresponding to C[C@H]1C/C=C/[C@@H](O)[C@@H](O)CC/C=C/c2cc(O)cc(O)c2C(=O)O1
Ans: 5.22

---

molecular target: Cyclin-dependent kinase 2/cyclin A (Homo sapiens) (UniProt P24941+P20248+P78396); test: Inhibition of CDK2/cyclin A using 5-FAM-GGGPATPKKAKKL-COOH as substrate at 10 uM after 1 hr by IMAP assay; assay type: protein-complex assay
For each entry below, report its inhibition value.
# value in %; strip the unit string

Q: Identify measured inhibition corresponding to CC(C)[C@H](CO)Nc1nc(Nc2cccc(Cl)c2)c2ncn(C(C)C)c2n1
Ans: 94

Q: Identify measured inhibition corresponding to C[C@H]1CCC[C@@H](O)[C@@H](O)CC/C=C/c2cc(O)cc(O)c2C(=O)O1
Ans: 25

Q: Identify measured inhibition corresponding to C[C@H]1CCC[C@@H](O)[C@@H](O)CCC(=O)Cc2cc(O)cc(O)c2C(=O)O1
Ans: 17

Q: Identify measured inhibition corresponding to COc1cc(O)cc2c1C(=O)O[C@@H](C)C/C=C/[C@@H](O)[C@@H](O)CC/C=C/2
Ans: 17

Q: Identify measured inhibition corresponding to C[C@H]1C/C=C/[C@@H](O)[C@@H](O)CCC(=NO)Cc2cc(O)cc(O)c2C(=O)O1 (mixture of isomers)
Ans: 19

Q: Identify measured inhibition corresponding to C[C@H]1C/C=C/[C@H]2OC(C)(C)O[C@H]2CC/C=C/c2cc(O)cc(O)c2C(=O)O1
Ans: 19

Q: Identify measured inhibition corresponding to COc1cc2c(c(OC)c1)C(=O)O[C@@H](C)C/C=C/[C@@H](O)[C@@H](O)CC/C=C/2
Ans: 13

Q: Identify measured inhibition corresponding to C[C@@H]1C/C=C/[C@@H](O)[C@@H](O)CC/C=C/c2cc(O)cc(O)c2C(=O)O1
Ans: 64

Q: Identify measured inhibition corresponding to O=C1OCC/C=C/[C@@H](O)[C@@H](O)CC/C=C/c2cc(O)cc(O)c21
Ans: 38

---

target: MAP kinase-interacting serine/threonine-protein kinase 2 (Homo sapiens, UniProt Q9HBH9); test: Inhibition of MNK2
Sequence (Q9HBH9 whole entry): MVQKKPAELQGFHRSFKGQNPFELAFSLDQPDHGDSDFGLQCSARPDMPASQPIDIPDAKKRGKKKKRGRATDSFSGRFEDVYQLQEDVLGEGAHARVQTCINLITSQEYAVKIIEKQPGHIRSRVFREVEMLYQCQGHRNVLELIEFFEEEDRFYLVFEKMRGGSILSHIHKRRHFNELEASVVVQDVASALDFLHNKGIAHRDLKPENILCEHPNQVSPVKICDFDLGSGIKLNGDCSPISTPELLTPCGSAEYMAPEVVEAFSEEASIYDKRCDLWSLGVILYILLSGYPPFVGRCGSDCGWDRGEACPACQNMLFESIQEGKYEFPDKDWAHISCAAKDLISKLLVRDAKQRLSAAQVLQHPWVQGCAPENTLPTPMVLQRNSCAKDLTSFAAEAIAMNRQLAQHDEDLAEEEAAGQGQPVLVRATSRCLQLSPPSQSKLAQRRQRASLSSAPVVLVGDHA
RECORDED METRIC: Kd (nM)
# value in nM; strip the unit string

Q: Please respond with reported Kd (system MAP kinase-interacting serine/threonine-protein kinase 2 (Homo sapiens, UniProt Q9HBH9)) for C[C@H]1C/C=C/[C@@H](O)[C@@H](O)CC/C=C/c2cc(O)cc(O)c2C(=O)O1 [AIGIALOMYCIN D] .
Ans: 160

---

Target: Receptor-type tyrosine-protein kinase FLT3 (Homo sapiens, UniProt P36888)
Sequence (P36888 whole entry): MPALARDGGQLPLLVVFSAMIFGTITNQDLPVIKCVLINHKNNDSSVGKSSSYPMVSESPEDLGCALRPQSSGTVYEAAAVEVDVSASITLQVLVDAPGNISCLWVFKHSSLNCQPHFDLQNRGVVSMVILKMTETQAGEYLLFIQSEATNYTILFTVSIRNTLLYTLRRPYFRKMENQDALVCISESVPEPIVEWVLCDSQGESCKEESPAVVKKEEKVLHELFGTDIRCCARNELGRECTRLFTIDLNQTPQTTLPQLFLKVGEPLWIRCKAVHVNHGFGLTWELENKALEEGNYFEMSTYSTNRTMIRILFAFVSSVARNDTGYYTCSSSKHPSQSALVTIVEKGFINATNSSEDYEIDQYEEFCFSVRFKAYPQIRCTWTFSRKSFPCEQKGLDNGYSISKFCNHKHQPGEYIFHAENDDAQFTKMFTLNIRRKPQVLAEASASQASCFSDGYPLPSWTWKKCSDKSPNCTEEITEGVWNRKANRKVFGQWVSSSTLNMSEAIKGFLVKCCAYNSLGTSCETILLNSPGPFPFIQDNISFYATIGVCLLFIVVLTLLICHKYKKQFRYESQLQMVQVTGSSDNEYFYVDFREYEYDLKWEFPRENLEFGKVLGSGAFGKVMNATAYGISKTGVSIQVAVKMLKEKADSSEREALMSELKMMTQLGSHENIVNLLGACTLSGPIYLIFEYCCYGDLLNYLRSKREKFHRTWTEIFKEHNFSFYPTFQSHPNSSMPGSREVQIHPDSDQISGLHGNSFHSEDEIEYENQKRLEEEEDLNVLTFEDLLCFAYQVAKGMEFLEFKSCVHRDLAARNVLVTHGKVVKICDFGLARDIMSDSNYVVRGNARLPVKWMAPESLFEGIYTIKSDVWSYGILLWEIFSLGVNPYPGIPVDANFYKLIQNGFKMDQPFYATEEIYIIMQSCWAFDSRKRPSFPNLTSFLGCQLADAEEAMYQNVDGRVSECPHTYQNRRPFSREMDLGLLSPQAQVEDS
RECORDED METRIC: Kd (nM)
# value in nM; strip the unit string

Q: Identify measured Kd corresponding to C[C@H]1C/C=C/[C@@H](O)[C@@H](O)CC/C=C/c2cc(O)cc(O)c2C(=O)O1
Ans: 300

---

RECORDED METRIC: pIC50
# pIC50 = -log10(concentration in molar units)

Q: Please respond with reported pIC50 (system MAP kinase-interacting serine/threonine-protein kinase 1 (Homo sapiens)) for C[C@H]1C/C=C/[C@@H](O)[C@@H](O)CC/C=C/c2cc(O)cc(O)c2C(=O)O1 .
Ans: 4.40

---

RECORDED METRIC: IC50

Q: Please respond with reported IC50 (system MAP kinase-interacting serine/threonine-protein kinase 2 (Homo sapiens, UniProt Q9HBH9)) for C[C@H]1C/C=C/CCCC/C=C/c2cc(O)cc(O)c2C(=O)O1 .
Ans: 1.61 µM

Q: Please respond with reported IC50 (system MAP kinase-interacting serine/threonine-protein kinase 2 (Homo sapiens, UniProt Q9HBH9)) for C[C@H]1C/C=C/[C@@H](O)[C@@H](O)CCC(O)Cc2cc(O)cc(O)c2C(=O)O1 (mixture of isomers) .
Ans: > 10 µM

Q: Please respond with reported IC50 (system MAP kinase-interacting serine/threonine-protein kinase 2 (Homo sapiens, UniProt Q9HBH9)) for C[C@H]1C/C=C/[C@@H](O)[C@@H](O)CCC(=O)Cc2cc(O)cc(O)c2C(=O)O1 .
Ans: > 10 µM

Q: Please respond with reported IC50 (system MAP kinase-interacting serine/threonine-protein kinase 2 (Homo sapiens, UniProt Q9HBH9)) for COc1cc2c(c(OC)c1)C(=O)O[C@@H](C)C/C=C/[C@@H](O)[C@@H](O)CC/C=C/2 .
Ans: > 10 µM

Q: Please respond with reported IC50 (system MAP kinase-interacting serine/threonine-protein kinase 2 (Homo sapiens, UniProt Q9HBH9)) for C[C@H]1C/C=C/[C@@H](O)[C@@H](O)CCC(=NO)Cc2cc(O)cc(O)c2C(=O)O1 (mixture of isomers) .
Ans: > 10 µM

Q: Please respond with reported IC50 (system MAP kinase-interacting serine/threonine-protein kinase 2 (Homo sapiens, UniProt Q9HBH9)) for O=C1OCC/C=C/[C@@H](O)[C@@H](O)CC/C=C/c2cc(O)cc(O)c21 .
Ans: > 10 µM

Q: Please respond with reported IC50 (system MAP kinase-interacting serine/threonine-protein kinase 2 (Homo sapiens, UniProt Q9HBH9)) for C[C@H]1CCC[C@@H](O)[C@@H](O)CCC(O)Cc2cc(O)cc(O)c2C(=O)O1 (mixture of isomers) .
Ans: > 10 µM

Q: Please respond with reported IC50 (system MAP kinase-interacting serine/threonine-protein kinase 2 (Homo sapiens, UniProt Q9HBH9)) for C[C@H]1CCC[C@@H](O)[C@@H](O)CCC(=O)Cc2cc(O)cc(O)c2C(=O)O1 .
Ans: > 10 µM

Q: Please respond with reported IC50 (system MAP kinase-interacting serine/threonine-protein kinase 2 (Homo sapiens, UniProt Q9HBH9)) for C[C@H]1C/C=C/[C@H]2OC(C)(C)O[C@H]2CC/C=C/c2cc(O)cc(O)c2C(=O)O1 .
Ans: 0.58 µM

Q: Please respond with reported IC50 (system MAP kinase-interacting serine/threonine-protein kinase 2 (Homo sapiens, UniProt Q9HBH9)) for C[C@H]1CCC[C@@H](O)[C@@H](O)CC/C=C/c2cc(O)cc(O)c2C(=O)O1 .
Ans: 1.35 µM

Q: Please respond with reported IC50 (system MAP kinase-interacting serine/threonine-protein kinase 2 (Homo sapiens, UniProt Q9HBH9)) for C[C@H]1C/C=C/[C@@H](O)[C@@H](O)CC/C=C/c2cc(O)cc(O)c2C(=O)O1 .
Ans: 0.45 µM

Q: Please respond with reported IC50 (system MAP kinase-interacting serine/threonine-protein kinase 2 (Homo sapiens, UniProt Q9HBH9)) for COc1cc(O)c2c(c1)/C=C/CC[C@H](O)[C@H](O)/C=C/C[C@H](C)OC2=O .
Ans: > 10 µM

Q: Please respond with reported IC50 (system MAP kinase-interacting serine/threonine-protein kinase 2 (Homo sapiens, UniProt Q9HBH9)) for C[C@@H]1C/C=C/[C@@H](O)[C@@H](O)CC/C=C/c2cc(O)cc(O)c2C(=O)O1 .
Ans: > 10 µM

Q: Please respond with reported IC50 (system MAP kinase-interacting serine/threonine-protein kinase 2 (Homo sapiens, UniProt Q9HBH9)) for C[C@H]1CCC[C@@H](O)[C@@H](O)CCCCc2cc(O)cc(O)c2C(=O)O1 .
Ans: > 10 µM

Q: Please respond with reported IC50 (system MAP kinase-interacting serine/threonine-protein kinase 2 (Homo sapiens, UniProt Q9HBH9)) for COc1cc(O)cc2c1C(=O)O[C@@H](C)C/C=C/[C@@H](O)[C@@H](O)CC/C=C/2 .
Ans: > 10 µM

Q: Please respond with reported IC50 (system MAP kinase-interacting serine/threonine-protein kinase 2 (Homo sapiens, UniProt Q9HBH9)) for COc1cc(O)cc2c1C(=O)O[C@@H](C)CCC[C@@H](O)[C@@H](O)CC/C=C/2 .
Ans: > 10 µM
